Where these numbers come from: patent US20200199207A1

Biological target: T1, nAra h 1 (peanut, UniProt P43238 85-626)
T1 construct: Bought natural allergen; also called naturally extracted Ara h 1
T1 sequence (looked up): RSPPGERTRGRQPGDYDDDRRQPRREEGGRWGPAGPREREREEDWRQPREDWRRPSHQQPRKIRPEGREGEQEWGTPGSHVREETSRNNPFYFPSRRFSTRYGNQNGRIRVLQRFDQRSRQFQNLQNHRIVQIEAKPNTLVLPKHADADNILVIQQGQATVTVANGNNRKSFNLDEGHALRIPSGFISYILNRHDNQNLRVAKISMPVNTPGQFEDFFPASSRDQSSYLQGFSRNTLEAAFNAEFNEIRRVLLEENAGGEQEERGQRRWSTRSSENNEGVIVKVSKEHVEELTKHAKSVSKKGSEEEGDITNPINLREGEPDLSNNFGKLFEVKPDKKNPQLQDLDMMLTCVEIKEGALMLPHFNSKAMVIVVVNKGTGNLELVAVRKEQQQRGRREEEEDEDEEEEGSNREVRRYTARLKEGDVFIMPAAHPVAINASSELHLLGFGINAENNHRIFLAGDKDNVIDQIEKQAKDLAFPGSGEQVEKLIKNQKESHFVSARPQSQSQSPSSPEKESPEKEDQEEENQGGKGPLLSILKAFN
Experiment: ELISA, antigen-coated plate
I'd be grateful if you could share measured EC50 for these entries.
Returns: string containing the number followed by the unit.

Exam item: Consider the binder shown here: h12G10 (antibody, human IgG1, V domains shown, Recombinant human IgG; also called hMAb 12G10) VH: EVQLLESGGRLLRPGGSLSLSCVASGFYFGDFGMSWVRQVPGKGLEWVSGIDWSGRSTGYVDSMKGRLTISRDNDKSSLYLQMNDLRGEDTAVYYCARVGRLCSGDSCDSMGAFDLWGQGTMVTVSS VL: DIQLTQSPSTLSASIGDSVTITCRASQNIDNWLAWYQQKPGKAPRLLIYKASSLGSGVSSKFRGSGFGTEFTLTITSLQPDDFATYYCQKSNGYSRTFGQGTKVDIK What is its recorded EC50?
Marked response: 0.242 µg/mL

Exam item: I'd like to know its EC50. The binder in question is h2F8 (antibody, V domains shown, Recombinant human IgG; also called hMAb 2F8) VH: EVQLVESGGGLVKPGGSLRLSCAASGFIFSDYNMNWVRQAPGKGLEWVSSITRSSRTIYYADSVKGRFTISRDNAKNSLHLQMNSLRDADTAVYYCAREDFDVSTGPYYMDVWGNGTTVIVSS VL: EIVLTQSPGTLSLSPGERATLSCRASQSVSNMFLVWYQQKPGQAPRLLMYGASTRATDIPDRFSGSGSGTDFTLTISRLEPEDFAVYYCQQNGNSPYTFGQGTKLEIK
Marked response: 0.0085 µg/mL
